Substrate: F protein of RSV strain Long (human respiratory syncytial virus strain Long (subtype A)) (UniProt P12568)
Sequence (P12568 26-574): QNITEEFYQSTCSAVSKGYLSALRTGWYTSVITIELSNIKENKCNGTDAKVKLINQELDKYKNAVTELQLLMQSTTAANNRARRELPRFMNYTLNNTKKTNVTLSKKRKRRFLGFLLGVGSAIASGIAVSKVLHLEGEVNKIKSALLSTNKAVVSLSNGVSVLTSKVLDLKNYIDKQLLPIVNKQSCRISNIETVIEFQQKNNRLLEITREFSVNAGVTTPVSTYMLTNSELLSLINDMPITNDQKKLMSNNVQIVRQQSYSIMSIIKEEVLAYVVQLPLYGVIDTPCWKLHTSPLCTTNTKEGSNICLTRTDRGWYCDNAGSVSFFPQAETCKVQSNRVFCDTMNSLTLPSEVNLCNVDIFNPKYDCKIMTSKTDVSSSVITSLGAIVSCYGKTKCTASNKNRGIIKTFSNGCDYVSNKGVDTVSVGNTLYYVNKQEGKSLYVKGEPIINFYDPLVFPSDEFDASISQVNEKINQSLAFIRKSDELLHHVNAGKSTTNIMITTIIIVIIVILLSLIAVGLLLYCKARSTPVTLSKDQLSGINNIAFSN
EXPERIMENTAL_PROTOCOL: cell-based or functional assay
MEASURE_NAME: EC50, PRNT with complement, RSV Long (µg/mL)
Write it as a number; the unit µg/mL goes unstated.

Sample records with EC50, PRNT with complement, RSV Long:
{"columns": ["BINDER", "REPORTED"],
 "data": [
  ["antibody 894 (clone 894) (antibody, human IgG1, kappa, V domains shown) VH: QVQLVESGGGVVQPGKSLRLSCAASGFRFSDYGMHWVRQAPSKGLEWVAVIWHDGSNIRYADSVRGRFSISRDNSKNTLYLQMNSMRADDTAFYYCARVPFQIWSGLYFDHWGQGTLVTVSS VL: EIVMTQSPATLSVSPGERATLSCRASQSVGNNLAWYQQRPGQAPRLLIYGASTRATGIPARFSGSGSGTEFTLTISSLQSEDFAVYYCQQYDKWPETFGQGTKVDIKR", 0.08],
  ["antibody 880 (clone 880) (antibody, human IgG1, kappa, V domains shown) VH: QITLKESGPTLVRPTQTLTLTCTFSGFSLSTSKLGVGWIRQPPGKALEWLALVDWDDDRRYRPSLKSRLTVTKDTSKNQVVLTMTNMDPVDTATYYCAHSAYYTSSGYYLQYFHHWGPGTLVTVSS VL: DIQMTQSPSSLAASVGDRVTITCRASQTIASYVNWYQQKPGKAPNLLIYAASSLQSGVPSRFSGSGSGTDFTLTISSLQPEDFASYFCQQSYSFPYTFGQGTKLDIKR", 0.38]
]}

Kindly consider the entry below.
State its EC50, PRNT with complement, RSV Long for this binder: antibody 818 (clone 818) (antibody, human IgG1, kappa, V domains shown) VH: QVTLRESGPAVVKPTETLTLTCAFSGFSLNAGRVGVSWIRQPPGQAPEWLARIDWDDDKAFRTSLKTRLSISKDSSKNQVVLTLSNMDPADTATYYCARTQVFASGGYYLYYLDHWGQGTLVTVSS VL: DIQMTQSPSSLSASVGDRVTITCRASQTIASYVNWYQQKPGRAPSLLIYAASNLQSGVPPRFSGSGSGTDFTLTISGLQPDDFATYYCQQSYSYRALTFGGGTKVEIKR
1.86
